# System under test: hBK1 receptor (Homo sapiens)
# Construct: expressed in transfected cells; host or cells: CHO cells (membrane homogenate)
# Sequence (P46663 whole entry): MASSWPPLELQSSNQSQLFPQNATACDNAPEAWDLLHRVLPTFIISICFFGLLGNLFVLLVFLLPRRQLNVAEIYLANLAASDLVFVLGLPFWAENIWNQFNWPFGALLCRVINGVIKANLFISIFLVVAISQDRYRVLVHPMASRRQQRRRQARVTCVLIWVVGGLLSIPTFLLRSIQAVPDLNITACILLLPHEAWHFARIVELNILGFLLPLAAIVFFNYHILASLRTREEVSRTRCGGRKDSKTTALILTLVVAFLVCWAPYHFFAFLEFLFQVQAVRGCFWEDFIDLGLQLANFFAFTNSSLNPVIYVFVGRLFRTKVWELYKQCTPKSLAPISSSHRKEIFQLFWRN
# Assay overview: hBK1 receptor binding
# Stated conditions: membranes of CHO cells expressing the hBK1 receptor; radioligand 0.5 to 1.0 nM kallidin (DesArg10, Leu9), [3,4-prolyl-3,43H(N)]; 60 minutes, room temperature
pKi: −log10 of the molar value. Structures can show the parent of a compound that is named as a salt.
Measured attribute: pKi

INSERT INTO results (compound, number) VALUES
  ('CN(CCc1ccc(C2=NCCN2)cc1)C(=O)C1CCCN(S(=O)(=O)c2cccc(Cl)c2Cl)C1 (stereo not drawn)', 6.02);

I. CN(CCN1CCN(CCc2ccc(C3=NCCN3)cc2)C1=O)S(=O)(=O)c1cccc(Cl)c1Cl [E, hydrochloride]
II. Cc1cc(S(=O)(=O)N2CCCCC2CCC(=O)N(C)CCc2ccc(C3=NCCN3)cc2)c(C)cc1Cl (stereo not drawn) [B, hydrochloride]
Exam item: Could you kindly indicate whether I or II has the higher pKi value? Kindly give the label for the entry you pick.
Marked response: II
(II: 7.59, I: 5.82)
